test-name: Quantification of serum and tissue CORT125281 concentration by LC-MS
Format: in vivo, C57Bl/6J mice
experimental-context: male, C57Bl/6J, mouse, oral; 60 mg/kg/day for 6 days; mice; liver; read-out: CORT125281 level, liver
parameter-measured: concentration at 6 days (ng/g)
Give bare numbers, in ng/g.

Sample Cn1ncc(S(=O)(=O)N2CC[C@H]3Cc4c(cnn4-c4ccc(F)cc4)C[C@]3(C(=O)c3cc(C(F)(F)F)ccn3)C2)n1 [CORT125281] ; concentration at 6 days observed: 2040

* * *

test-name: Quantification of serum and tissue CORT125281 concentration by LC-MS
Type: in vivo, C57Bl/6J mice
experimental-context: male, C57Bl/6J, mouse, oral; 60 mg/kg/day for 6 days; mice; plasma; read-out: CORT125281 level, plasma
parameter-measured: concentration at 6 days (ng/g)
Give bare numbers, in ng/g.

Record Cn1ncc(S(=O)(=O)N2CC[C@H]3Cc4c(cnn4-c4ccc(F)cc4)C[C@]3(C(=O)c3cc(C(F)(F)F)ccn3)C2)n1 [CORT125281] . Reported concentration at 6 days: 419

* * *

test-name: Quantification of serum and tissue CORT125281 concentration by LC-MS
Format: in vivo, C57Bl/6J mice
experimental-context: male, C57Bl/6J, mouse, WAT (white adipose tissue) relative to plasma, oral; 60 mg/kg/day for 6 days; mice; read-out: tissue to plasma ratio, WAT
parameter-measured: Kp at 6 days
Give bare numbers.

The molecule identified as `Cn1ncc(S(=O)(=O)N2CC[C@H]3Cc4c(cnn4-c4ccc(F)cc4)C[C@]3(C(=O)c3cc(C(F)(F)F)ccn3)C2)n1` registered its Kp at 6 days at 46.7

* * *

test-name: Quantification of serum and tissue CORT125281 concentration by LC-MS
Type: in vivo, C57Bl/6J mice
experimental-context: male, C57Bl/6J, mouse, gonadal WAT (white adipose tissue), oral; 60 mg/kg/day for 6 days; mice; gonadal WAT; read-out: CORT125281 level, WAT
parameter-measured: concentration at 6 days (ng/g)
Numbers only, in ng/g.

GET /value?item= Cn1ncc(S(=O)(=O)N2CC[C@H]3Cc4c(cnn4-c4ccc(F)cc4)C[C@]3(C(=O)c3cc(C(F)(F)F)ccn3)C2)n1 [CORT125281] &field=concentration at 6 days returns 12500

* * *

test-name: Quantification of serum and tissue CORT125281 concentration by LC-MS
Assay type: in vivo, C57Bl/6J mice
experimental-context: male, C57Bl/6J, mouse, BAT (brown adipose tissue), oral; 60 mg/kg/day for 6 days; mice; BAT; read-out: CORT125281 level, BAT
Method: All studies involving animals were approved by the institutional ethics committee on animal care and experimentation at the Leiden University Medical Center. […] Throughout the experiment, body weight was monitored and body composition was determined with EchoMRI™ (Frankfurt, Germany). […] Plasma triglyceride, total cholesterol, free fatty acid, glucose and insulin levels were determined using commercially available kits (Roche; Instruchemie, Delfzijl, Netherlands and Crystal Chem, Zaandam, Netherlands). […]
parameter-measured: concentration at 6 days (ng/g)
Numbers only, in ng/g.

Noted for Cn1ncc(S(=O)(=O)N2CC[C@H]3Cc4c(cnn4-c4ccc(F)cc4)C[C@]3(C(=O)c3cc(C(F)(F)F)ccn3)C2)n1 [CORT125281] : its concentration at 6 days reads 4720

* * *

test-name: Quantification of serum and tissue CORT125281 concentration by LC-MS
Type: in vivo, C57Bl/6J mice
experimental-context: male, C57Bl/6J, mouse, liver relative to plasma, oral; 60 mg/kg/day for 6 days; mice; read-out: tissue to plasma ratio, liver
parameter-measured: Kp at 6 days

# Kp at 6 days of `Cn1ncc(S(=O)(=O)N2CC[C@H]3Cc4c(cnn4-c4ccc(F)cc4)C[C@]3(C(=O)c3cc(C(F)(F)F)ccn3)C2)n1` = 8
